Entries and their solubility kinetic values follow.
- test.summary: Solubility assay (kinetic solubility, PBS pH 7)
- Type: physicochemical
- experimental.setup: pH 7, aqueous buffer, kinetic from dmso stock, pH 7, PBS; read-out: Solubility
- Experimental: The standard reference solutions were prepared by diluting the 10 mM stock in 10:80:10 solution of acetonitrile:methanol:DMSO to 100 µM. The solubility value is calculated by the following equation: Solubility [µM] = (Peak area of sample/ Peak area of standard) (Standard concentration)
Positions of bridges follow the written chain, without caps; N, C: chain ends. Non-standard residues stand in square brackets, D forms with d. Residues, ends and D or L forms follow the SMILES beside them. Lys(N3) = [N-]=[N+]=NCCCC[C@H](N)C(=O)O; R8 = C=CCCCCCC[C@@](C)(N)C(=O)O; Cba = N[C@@H](CC1CCC1)C(=O)O; S5 = C=CCCC[C@](C)(N)C(=O)O; βAla = NCCC(=O)O
Give the quantity in µM, number only.

Could you tell me which solubility kinetic is on file for CC(=O)N[C@@H](CCCCN=[N+]=[N-])C(=O)NCCC(=O)N[C@@H](CC(C)C)C(=O)N[C@H](C(=O)N[C@@H](Cc1ccccc1)C(=O)N[C@]1(C)CCCCCCC=CCCC[C@@](C)(C(=O)N[C@@H](CO)C(=O)N[C@@H](C)C(=O)N[C@@H](C)C(N)=O)NC(=O)[C@H](CC2CCC2)NC(=O)[C@H](CCC(N)=O)NC(=O)[C@H](C)NC(=O)[C@H](Cc2c[nH]c3ccccc23)NC(=O)[C@H](Cc2ccc(O)cc2)NC(=O)[C@H](CCCCN)NC1=O)[C@@H](C)O [MP-548, AZIDE-ATSP-7041 (E5K)] ? 5

Now this one: CC(C)C[C@@H]1NC(=O)[C@H](C)NC(=O)[C@H](Cc2c[nH]c3ccccc23)NC(=O)[C@H](Cc2ccc(O)cc2)NC(=O)[C@H](CCC(=O)O)NC(=O)[C@](C)(NC(=O)[C@H](Cc2ccccc2)NC(=O)[C@H](CO)NC(=O)[C@@H](NC(=O)[C@H](CO)NC(=O)CNC(=O)[C@H](CO)NC(=O)[C@@H](N)CCCCN=[N+]=[N-])[C@@H](C)O)CCCCCCC=CCCC[C@@](C)(C(N)=O)NC(=O)[C@H](CC(C)C)NC1=O [MP-75496] 10

Thanks! And CC(=O)N(C)CC(=O)N(C)CC(=O)N(C)CC(=O)N(C)CC(=O)N[C@@H](CC(C)C)C(=O)N[C@H](C(=O)N[C@@H](Cc1ccccc1)C(=O)N[C@]1(C)CCCCCCC=CCCC[C@@](C)(C(=O)N[C@@H](CO)C(=O)N[C@@H](C)C(=O)N[C@@H](C)C(N)=O)NC(=O)[C@H](CC2CCC2)NC(=O)[C@H](CCC(N)=O)NC(=O)[C@H](C)NC(=O)[C@H](Cc2c[nH]c3ccccc23)NC(=O)[C@H](Cc2ccc(O)cc2)NC(=O)[C@H](CCC(=O)O)NC1=O)[C@@H](C)O [MP-361] ? 70.7

And what about the compound CC(=O)N[C@@H](CCCCN=[N+]=[N-])C(=O)NCCC(=O)N[C@@H](CC(C)C)C(=O)N[C@H](C(=O)N[C@@H](Cc1ccccc1)C(=O)N[C@]1(C)CCCCCCC=CCCC[C@@](C)(C(=O)N[C@@H](CO)C(=O)N[C@H](C)C(=O)N[C@@H](C)C(N)=O)NC(=O)[C@H](CC2CCC2)NC(=O)[C@H](CCC(N)=O)NC(=O)[C@H](C)NC(=O)[C@H](Cc2c[nH]c3cc(Cl)ccc23)NC(=O)[C@H](Cc2ccc(O)cc2)NC(=O)[C@H](CCC(=O)O)NC1=O)[C@@H](C)O [MP-494] ? 86.5

Now the compound CC(=O)N[C@@H](CCCCN=[N+]=[N-])C(=O)NCCC(=O)N[C@@H](CC(C)C)C(=O)N[C@H](C(=O)N[C@@H](Cc1ccccc1)C(=O)N[C@]1(C)CCCCCCC=CCCC[C@@](C)(C(=O)N[C@@H](CO)C(=O)N[C@@H](C)C(=O)N[C@@H](C)C(N)=O)NC(=O)[C@H](CC2CCC2)NC(=O)[C@H](C)NC(=O)[C@H](CCC(N)=O)NC(=O)[C@H](Cc2c[nH]c3ccccc23)NC(=O)[C@H](Cc2ccc(O)cc2)NC(=O)[C@H](CCC(=O)O)NC1=O)[C@@H](C)O [MP-4203] (Ac-[Lys(N3)][βAla]LTF[R8]EYWQA[Cba][S5]SAA-NH2; staple 6-13) 179

Where do these numbers come from? They come from paper PMC10786919.
